Test system: Mycosphaerella graminicola; Anamorph: Septoria tritici; Bayer Code SEPTTR
test details: Leaf blotch of wheat, foliar fungicide treatment, one day protectant (1DP) or three day curative (3DC)
Assay type: in vivo, Septoria tritici on wheat plants (variety Yuma)
measurement conditions: Zymoseptoria tritici, 24 h, one day protectant (1DP), 100 ppm, rating of percent disease control, read-out: SEPTTR 1DP 100 ppm
experimental readout: pest or weed control at 100 ppm

- molecule: "CCOC(=O)COC(=O)Nc1nc(OCc2ccc(F)cc2)ncc1F"
  value measured: "76 to 100%"
- molecule: "CC(C)c1ccc(C(C)Oc2ncc(F)c(N)n2)cc1 (stereo not shown)"
  value measured: "76 to 100%"
- molecule: "CC(C)NC(=O)Nc1nc(OCc2cccc(C#N)c2)ncc1F"
  value measured: "0 to 25%"
- molecule: "Nc1nc(OCCOc2ccccc2)ncc1F"
  value measured: "0 to 25%"
- molecule: "CC(C)=NNc1nc(OCc2ccc(F)cc2)ncc1F"
  value measured: "51 to 75%"
- molecule: "CCOC(CC)Nc1nc(OCc2ccc(F)cc2)ncc1F (stereo not shown)"
  value measured: "76 to 100%"
- molecule: "CC(C)(C)NNc1nc(OCc2ccc(F)cc2)ncc1F"
  value measured: "0 to 25%"
- molecule: "COc1cc(COc2ncc(F)c(N)n2)cc(Cl)n1"
  value measured: "76 to 100%"
- molecule: "CN(C)/C=N/c1nc(OCCNc2ccccc2)ncc1F"
  value measured: "76 to 100%"
- molecule: "Nc1nc(OCc2ccco2)ncc1F"
  value measured: "76 to 100%"
- molecule: "COc1ncc(Oc2ncc(F)c(N)n2)cn1"
  value measured: "0 to 25%"
- molecule: "CCOC(=O)Nc1nc(OC(C)c2ccc(F)cc2)ncc1F (stereo not shown)"
  value measured: "76 to 100%"
- molecule: "CCOC(=O)COC(=O)Nc1nc(OCc2cccc(C#N)c2)ncc1F"
  value measured: "26 to 50%"
- molecule: "COc1ccccc1COc1ncc(F)c(NC(C)=O)n1"
  value measured: "76 to 100%"
- molecule: "CN(C)/C=N/c1nc(Cl)ncc1F"
  value measured: "26 to 50%"
- molecule: "COc1ccccc1COc1ncc(F)c(NCOCc2ccccc2)n1"
  value measured: "76 to 100%"
- molecule: "CC1CC1COc1ncc(F)c(N)n1 (stereo not shown)"
  value measured: "76 to 100%"
- molecule: "Nc1nc(OCc2ccc(OCc3ccccc3)cc2)ncc1F"
  value measured: "76 to 100%"
- molecule: "Cc1cc(C)c(COc2ncc(F)c(N)n2)c(C)c1"
  value measured: "76 to 100%"
- molecule: "COc1cc(F)c(COc2ncc(F)c(N)n2)cn1"
  value measured: "76 to 100%"
- molecule: "Nc1nc(OCc2cn3ccccc3n2)ncc1F"
  value measured: "76 to 100%"
- molecule: "COCCOC(=O)Nc1nc(OCc2cccc(OC)c2)ncc1F"
  value measured: "76 to 100%"

---

Test system: Mycosphaerella graminicola; Anamorph: Septoria tritici; Bayer Code SEPTTR
test details: Leaf blotch of wheat, foliar fungicide treatment, one day protectant (1DP) or three day curative (3DC)
Assay type: in vivo, Septoria tritici on wheat plants (variety Yuma)
measurement conditions: Zymoseptoria tritici, 24 h, one day protectant (1DP), 100 ppm, rating of percent disease control, read-out: SEPTTR 1DP 100 ppm
Measured pest or weed control at 100 ppm, listed per entry for reference.
experimental readout: pest or weed control at 100 ppm

- record smiles: "Cc1cc(C)cc(COc2ncc(F)c(NSc3ccccc3[N+](=O)[O-])n2)c1"
  experimental readout: "pest or weed control at 100 ppm"
  value measured: "0 to 25%"
- record smiles: "CC#CCOc1ncc(F)c(NC(C)=O)n1"
  experimental readout: "pest or weed control at 100 ppm"
  value measured: "76 to 100%"
- record smiles: "CCOC(=O)CCC(=O)NNc1nc(OCc2ccccc2)ncc1F"
  experimental readout: "pest or weed control at 100 ppm"
  value measured: "26 to 50%"
- record smiles: "CCCCCOC(=O)Nc1nc(OCc2cccc(F)c2)ncc1F"
  experimental readout: "pest or weed control at 100 ppm"
  value measured: "76 to 100%"
- record smiles: "Fc1ccc(COc2ncc(F)c(/N=C/N3CCOCC3)n2)cc1"
  experimental readout: "pest or weed control at 100 ppm"
  value measured: "76 to 100%"
- record smiles: "Cc1ccc(COc2ncc(F)c(NC(=O)Nc3ccccc3F)n2)cc1"
  experimental readout: "pest or weed control at 100 ppm"
  value measured: "0 to 25%"
- record smiles: "COc1ccc(Oc2ncc(F)c(/N=C/N(C)C)n2)cc1"
  experimental readout: "pest or weed control at 100 ppm"
  value measured: "0 to 25%"
- record smiles: "CN1CCC/C1=N\\c1nc(OCc2ccc(F)cc2)ncc1F"
  experimental readout: "pest or weed control at 100 ppm"
  value measured: "76 to 100%"
- record smiles: "Cc1cc(Oc2ncc(F)c(N)n2)cc(C)n1"
  experimental readout: "pest or weed control at 100 ppm"
  value measured: "0 to 25%"
- record smiles: "O=C(NNc1nc(OCc2ccccc2)ncc1F)c1ccccc1"
  experimental readout: "pest or weed control at 100 ppm"
  value measured: "0 to 25%"

---

Tested on: Mycosphaerella graminicola; Anamorph: Septoria tritici; Bayer Code SEPTTR
test details: Leaf blotch of wheat, foliar fungicide treatment, one day protectant (1DP) or three day curative (3DC)
Format: in vivo, Septoria tritici on wheat plants (variety Yuma)
measurement conditions: Zymoseptoria tritici, 24 h, one day protectant (1DP), 25 ppm, rating of percent disease control, read-out: SETTTR 1DP 25 ppm
Measured pest or weed control at 25 ppm, listed per entry for reference.
experimental readout: pest or weed control at 25 ppm

- compound: "COc1cccc(COc2ncc(F)c(NC(=O)c3ccccc3)n2)c1"
  value measured: "76 to 100%"
- compound: "CC#CCOc1ncc(F)c(NC(C)=O)n1"
  value measured: "76 to 100%"
- compound: "CC(C)(C)OC(=O)NNc1nc(OCc2ccccc2)ncc1F"
  value measured: "0 to 25%"
- compound: "Cc1ccc(COc2ncc(F)c(/N=C/N(C)C)n2)cc1"
  value measured: "76 to 100%"
- compound: "CN(C)/C=N/c1nc(OC(=O)Oc2cccc(C(F)(F)F)c2)ncc1F"
  value measured: "76 to 100%"
- compound: "O=C(Nc1nc(OCc2ccc(F)cc2)ncc1F)C(F)F"
  value measured: "76 to 100%"
- compound: "Nc1nc(OCc2cccc(Cl)c2)ncc1F"
  value measured: "76 to 100%"
- compound: "COc1ccccc1COc1ncc(F)c(NC(=O)Nc2ccccc2F)n1"
  value measured: "0 to 25%"
- compound: "Nc1nc(OCc2cccc(OC(F)F)c2)ncc1F"
  value measured: "76 to 100%"
- compound: "Cc1noc(-c2ccccc2COc2ncc(F)c(N)n2)n1"
  value measured: "0 to 25%"
- compound: "COc1ccccc1COc1ncc(F)c(NSc2ccccc2[N+](=O)[O-])n1"
  value measured: "76 to 100%"
- compound: "O=C(NCc1ccccc1F)Nc1nc(OCc2ccc(F)cc2)ncc1F"
  value measured: "0 to 25%"
- compound: "CC(Oc1ncc(F)c(NC(=O)OCc2ccccc2)n1)c1ccc(F)cc1 (centres unmarked)"
  value measured: "76 to 100%"
- compound: "CN(C)/C=N/c1nc(OC(=O)c2cccc(Cl)c2)ncc1F"
  value measured: "76 to 100%"
- compound: "CN(C)/C=N/c1nc(OCc2ccccc2)ncc1F"
  value measured: "76 to 100%"
- compound: "CCOC(=O)Nc1nc(OCc2ccc(C)cc2)ncc1F"
  value measured: "76 to 100%"
- compound: "COc1cccc(COc2ncc(F)c(NC(=O)OCc3ccccc3)n2)c1"
  value measured: "76 to 100%"
- compound: "CC(C)c1ccc(C(C)Oc2ncc(F)c(N)n2)cc1 (centres unmarked)"
  value measured: "76 to 100%"
- compound: "Nc1nc(ON=C(c2ccccc2)c2ccccc2)ncc1F"
  value measured: "76 to 100%"
- compound: "CCOC(=O)Nc1nc(OCc2cccc(OC)c2)ncc1F"
  value measured: "76 to 100%"

---

Measured pest or weed control at 25 ppm, listed per entry for reference.
System: Mycosphaerella graminicola; Anamorph: Septoria tritici; Bayer Code SEPTTR
test details: Leaf blotch of wheat, foliar fungicide treatment, one day protectant (1DP) or three day curative (3DC)
Format: in vivo, Septoria tritici on wheat plants (variety Yuma)
measurement conditions: Zymoseptoria tritici, 24 h, one day protectant (1DP), 25 ppm, rating of percent disease control, read-out: SETTTR 1DP 25 ppm
experimental readout: pest or weed control at 25 ppm

- record smiles: "Cc1ccc(COc2ncc(F)c(NC(=S)Nc3ccccc3F)n2)cc1"
  value measured: "76 to 100%"
- record smiles: "CCCNC(=O)Nc1nc(OCc2cccs2)ncc1F"
  value measured: "0 to 25%"
- record smiles: "O=[N+]([O-])c1ccccc1SNc1nc(OCc2cccc(C(F)(F)F)c2F)ncc1F"
  value measured: "26 to 50%"
- record smiles: "COc1cccc(COc2ncc(F)c(NC(=O)Nc3ccccc3F)n2)c1"
  value measured: "0 to 25%"
- record smiles: "O=C(Nc1ccccc1F)Nc1nc(OCc2cccs2)ncc1F"
  value measured: "0 to 25%"
- record smiles: "COc1c(C)cnc(COc2ncc(F)c(N)n2)c1C"
  value measured: "51 to 75%"
- record smiles: "Nc1nc(OCc2ccc(Cl)cc2Cl)ncc1F"
  value measured: "76 to 100%"
- record smiles: "Fc1ccc(COc2ncc(F)c(NNc3ccccc3Cl)n2)cc1"
  value measured: "0 to 25%"
- record smiles: "COc1ccc(COc2ncc(F)c(NSc3ccccc3[N+](=O)[O-])n2)cc1F"
  value measured: "0 to 25%"
